Listed here: items and their measured viability, T/C.
Test system: KRAS-mutant PDC complex spheroid viability
Assay: Anticancer human tumor 186277-243-T-J2-PDC patient-derived colon adenocarcinoma cell line growth inhibition [KRAS2]
Conditions: second compound 0.316 µM; first compound 0.0316 µM; stronger effect = lower value
// note: answer is a bare numeric in %

Would you please look over these solved cases?
1) Cn1ncnc1[C@H]1c2n[nH]c(=O)c3cc(F)cc(c23)N[C@@H]1c1ccc(F)cc1 + CC1OCC2(CCN(c3cnc(Sc4ccnc(N)c4Cl)c(N)n3)CC2)C1N :: 76.8
2) CC(C)NCC(C(=O)N1CCN(c2ncnc3c2C(C)CC3O)CC1)c1ccc(Cl)cc1 (stereo not given) + C=CC(=O)N1CCN(c2nc(=O)n(-c3c(C)ccnc3C(C)C)c3nc(-c4c(O)cccc4F)c(F)cc23)C(C)C1 :: 106
3) CCNC(=O)CC1N=C(c2ccc(Cl)cc2)c2cc(OC)ccc2-n2c(C)nnc21 (stereo not given) + CC1OCC2(CCN(c3cnc(Sc4ccnc(N)c4Cl)c(N)n3)CC2)C1N :: 108

Data request: What viability, T/C value was documented for this compound, CC(C)NCC(C(=O)N1CCN(c2ncnc3c2C(C)CC3O)CC1)c1ccc(Cl)cc1 (stereo not given) + C=CC(=O)N1CCN(c2nc(OCC3CCCN3C)nc3c2CCN(c2cccc4cccc(C)c24)C3)CC1CC#N ?
Data returned: 108

Data request: Further, for COc1cc(Nc2ncc3c(n2)-c2ccc(Cl)cc2C(c2c(F)cccc2OC)=NC3)ccc1C(=O)O + C=CC(=O)N1CCN(c2nc(=O)n(-c3c(C)ccnc3C(C)C)c3nc(-c4c(O)cccc4F)c(F)cc23)C(C)C1 ?
Data returned: 28.5

---

Listed next: entries and their corresponding IC50.
Tested on: KRAS-mutant PDC complex spheroid viability
Experiment: Anticancer human tumor 186277-243-T-J2-PDC cell line growth inhibition [KRAS2]
Settings: curve of first compound; second compound 10 µM

Here is how some compounds turned out for IC50.
1) CC(C)NCC(C(=O)N1CCN(c2ncnc3c2C(C)CC3O)CC1)c1ccc(Cl)cc1 (stereo not drawn) + CNCc1ccccc1-c1csc(C(C)Nc2nc(C)nc3cc(OC)c(OC)cc23)c1 :: < 31.6 nM
2) CC(=O)Nc1cccc(-n2c(=O)n(C3CC3)c(=O)c3c(Nc4ccc(I)cc4F)n(C)c(=O)c(C)c32)c1 + CNCc1ccccc1-c1csc(C(C)Nc2nc(C)nc3cc(OC)c(OC)cc23)c1 :: < 0.1 nM

Data request: Bench note: what IC50 did COc1cc(Nc2ncc3c(n2)-c2ccc(Cl)cc2C(c2c(F)cccc2OC)=NC3)ccc1C(=O)O + COc1cc2nc(C)nc(NC(C)c3cc(N)cc(C(F)(F)F)c3)c2cc1OC1CCOC1 show?
Data returned: < 31.6 nM

---

Readings of pIC50 for the listed compounds
System: KRAS-mutant PDC complex spheroid viability
Assay: Anticancer human tumor 186277-243-T-J2-PDC cell line growth inhibition [KRAS2]
Settings: curve of first compound; second compound 10 µM
pIC50: −log10 of the molar value.

Please review the entries below; each comes with its answer.
1) Cn1ncnc1[C@H]1c2n[nH]c(=O)c3cc(F)cc(c23)N[C@@H]1c1ccc(F)cc1 + CNCc1ccccc1-c1csc(C(C)Nc2nc(C)nc3cc(OC)c(OC)cc23)c1 :: > 9.50
2) COC(=O)c1ccc2c(C(=Nc3ccc(N(C)C(=O)CN4CCN(C)CC4)cc3)c3ccccc3)c(O)[nH]c2c1 + CNCc1ccccc1-c1csc(C(C)Nc2nc(C)nc3cc(OC)c(OC)cc23)c1 :: > 7.50

Data request: Name the recorded pIC50 for CC1OCC2(CCN(c3cnc(Sc4ccnc(N)c4Cl)c(N)n3)CC2)C1N (stereo not drawn) + CNCc1ccccc1-c1csc(C(C)Nc2nc(C)nc3cc(OC)c(OC)cc23)c1 .
Data returned: > 7.50
